Sourced from patent US20140287419A1

# assay remarks: 14C assay with IPTG-induced recombinant E. coli cells (14CO2 capture from [14C]-carboxyl-labeled dicamba)
# assay context: IPTG-induced recombinant E. coli cells; [14C]-carboxyl-labeled dicamba; 14CO2 capture

molecule | Dicamba Decarboxylase Activity
20 (protein, listed as Legionella pneumophila) MAIVDFETHFITEACIDYLTQRQEVPKLVPDLNGAYTMCFTPDVSLFHTSALMEELLSLNEQRLAIMDQAGVTIQVLSLTTINGIDSCPGDENKSTALAREVNDQLYSAIQRHPERFKGFASISPYDVKEGVKELERAISQLGFVGWLTHSNFGQDNYLDDKTYWPLLEAAEGLNIPIYLHPNVPIMREFGKYGFALGGSALGFEFDTALCLMRMILGGVFDAFPKLKIMLGHLGETMPFLMERLDHLYRIPDLKAYRPSIQRIPSEVLRQNVYITTSGRFFVPALRYVLEVMGEDRVLFASDYPMESLLDATRFIQDSDLSNQTKQKIFSINAKNLNLI | Low
84 (protein, listed as Mycobacterium rhodesiae) MASLIALEEHYAWDPASEGNVVATWLRANNGVAYDRLYDRGPLRIEQMDAAGIDFQILSLFDPGVQDEVDAVRAVDLARRANDDLAESVRANPSRFGGFATLATQQPDAAVAEFDRAVTELGLVGGLINGHCQGRYLDDPAYEALFSRAEALGAPIYLHPTTPHPAVMDAWFAPYVGDGLHLASWGFAAETGTHVLRLIYSGLFDKFPRLQMIIGHLGEMLPFAAYRIDRYYGLGGGGTGHTLQHLPSDYLRNNFHVTTSGNFCSPALDCTLDVMGADRVMFSVDYPMDDNQTGADFLASYPMDDTNRRKVASENALRLFGDRIPAALRN | Low
28 (protein, listed as Sphingomonas paucimobilis) MARLIATEEAVTFQPVVDALRAHSRTDDASLDMILVRDVYGDEPARPAMIGRLSDVTGERLAEMDSNGVDMHLLSLTAPGVQMFDAETGTRLARIANDLMAQTVAANPTRFAGLGTFAPQDPASAAREIERVATQLRLNGLVINSHTNDLYYDDPFFHPVFEAIEASGLALYIHPRAPSKQIDRAFRDYGMNSAIWGYGIETSTNAVRMILSGLFDRFPRLKIVLGHMGEAIPFWLWRLDYMHGNATTFGGAPKLKLKPSEYFRRNFAITTSGVESHAALRYSIEVLGPENVMWAIDYPYQPMAPAVQFIRTAPIPEDVKAMVAGGNAARIFRIT | High
25 (protein, listed as Acidovorax avenae) MAQGKIGLEEHFAIPETLQDSAGFVPGDYWKELSLRLLDIHERRLREMDENGMEMMILSLNAPAVQAIPDTKKAVEIAVRANDFLAEQVARRPDRFQAFAALPMQDPDLATRELERCMQDLGFRGALVNGFSQVGTPENVVYYDAPQYGDFWAAVERLDAPFYLHPRNPIASWAQIYQGHPWLMGPTWAFAQETAVHALRLMASGLFDRHPGLRIILGHLGEGLPYNMWRVDHRNAWVDMPKGYPAKRKLCDYFHENFYLTTSGNFRTQTLIDALLEVGADRILFSTDWPFENVDHAAHWFDDAAISEADRLKIGRTNALSLFKLPQG | Low
